# PROCEDURE TEXT: Plasma protein binding in iv dosed C57Bl/6JRccHsd mouse measured at 40 mins
# Type: ADME, organism-based
# CONDITION SUMMARY: read-out: PPB (converted)
MEASURED PROPERTY: fraction unbound at 40 min
Give the figure by itself; no unit, no explanation.

Query :: Item N#C[C@@H]1CCCN1C(=O)[C@@H]1CCCN1C(=O)CCCc1ccc([123I])cc1 has what recorded fraction unbound at 40 min?
Result :: 0.98

---

# System: Brain
# PROCEDURE TEXT: Biodistribution in C57Bl/6JRccHsd mouse brain at 2.86 +/- 1.26 MBq, iv measured at 5 mins by SPECT analysis
# Type: ADME, organism-based
# CONDITION SUMMARY: in vivo
MEASURED PROPERTY: Drug uptake (%ID)
The reply should be a number in %ID, with the unit left off.

Query :: Item N#C[C@@H]1CCCN1C(=O)[C@@H]1CCCN1C(=O)CCCc1ccc([123I])cc1 has what recorded Drug uptake?
Result :: 0.43

---

# PROCEDURE TEXT: Fraction unbound in iv dosed C57Bl/6JRccHsd mouse plasma measured at 40 mins
# Assay type: ADME, organism-based
MEASURED PROPERTY: fraction unbound at 40 min
Give the figure by itself; no unit, no explanation.

Query :: Item N#C[C@@H]1CCCN1C(=O)[C@@H]1CCCN1C(=O)CCCc1ccc([123I])cc1 has what recorded fraction unbound at 40 min?
Result :: 0.08
